Data provenance is the supplement of paper PMC11208160.

Test: recombinant barcode read abundance after kanamycin selection (control-corrected) (log10(CPM+1)); higher = more efficient recombination; sequences stand for … in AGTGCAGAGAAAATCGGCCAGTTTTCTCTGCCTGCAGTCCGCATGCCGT…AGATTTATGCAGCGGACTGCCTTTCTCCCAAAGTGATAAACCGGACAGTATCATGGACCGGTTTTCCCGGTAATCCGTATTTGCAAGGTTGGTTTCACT; site = the 11-nt target
Response key: fulfilled means recombinant barcode read abundance (log10) >= 0.2; not fulfilled means recombinant barcode read abundance (log10) < 0.2.

>>> df
                         biopolymer_sequence       category
 0  ATTAAATCTTGGGTTCTAACCTGTTGCCT (site ATTAATCCTAG)      fulfilled
 1  ATGAGCTCTTGGGTTCTAACCTGTTGCTA (site ATGAGGTCTGA)  not fulfilled
 2  ACTACTACTTGGGTTCTAACCTGTTGCCT (site AGTACTACTAG)      fulfilled
 3  GACTCTCCTTGGGTTCTAACCTGTTGCTT (site GACTCTCCTAA)      fulfilled
 4  GTGTTTCCTTGGGTTCTAACCTGTTGCAT (site GTGTATCCTAT)      fulfilled
 5  GGGACTACTTGGGTTCTAACCTGTTGCCG (site GGGACTACTCG)      fulfilled
 6  ACTGTAACTTGGGTTCTAACCTGTTGCTT (site ACTCTAACTAA)  not fulfilled
 7  TAGCCTTCTTGGGTTCTAACCTGTTGCTG (site TAGCCTTCTCA)      fulfilled
 8  GAGGCTCCTTGGGTTCTAACCTGTTGCCC (site GAGGCTCCTAG)      fulfilled
 9  AAAATATCTTGGGTTCTAACCTGTTGCCT (site AAAATATCTAG)      fulfilled
10  AGCCGTACTTGGGTTCTAACCTGTTGCCT (site AGGCGTACTAG)      fulfilled
11  CGCCGCCCTTGGGTTCTAACCTGTTGCCT (site CGCCGCCCTAG)  not fulfilled
12  AATTGTCCTTGGGTTCTAACCTGTTGCAT (site AATTGTCCTAG)  not fulfilled
13  CTGGACCCTTGGGTTCTAACCTGTTGCCG (site CTGGACCCTCG)      fulfilled
14  CTACCCTCTTGGGTTCTAACCTGTTGCAT (site CTATCCTCTAT)      fulfilled
15  CATATCCCTTGGGTTCTAACCTGTTGCAT (site CATATCCCTAT)      fulfilled
16  GATGGCCCTTGGGTTCTAACCTGTTGCCT (site GTTGGCCCTAG)  not fulfilled
17  CGGTTGCCTTGGGTTCTAACCTGTTGCGT (site CGGTCGCCTAT)      fulfilled
18  AGCAGAGCTTGGGTTCTAACCTGTTGCTG (site AGCAGAGCTCC)      fulfilled
19  CCATCAACTTGGGTTCTAACCTGTTGCCT (site CCATGAACTTG)  not fulfilled
20  GGTGAGACTTGGGTTCTAACCTGTTGCCA (site AGTGGGACTTG)      fulfilled
21  GTCTCAACTTGGGTTCTAACCTGTTGCCT (site TTCTGAACTAG)  not fulfilled
22  TAGGTGCCTTGGGTTCTAACCTGTTGCAT (site TAGGTTCCTAT)  not fulfilled
23  TAGCTCACTTGGGTTCTAACCTGTTGCAT (site TAGCTCACTAT)      fulfilled
24  GAAACTCCTTGGGTTCTAACCTGTTGCCT (site GAAAGTCCTAG)      fulfilled
25  TACTATGCTTGGGTTCTAACCTGTTGCGA (site TACTATGCTTC)      fulfilled
26  TCCCATACTTGGGTTCTAACCTGTTGCCT (site TCCCATGCTAG)  not fulfilled
27  ATCCAGGCTTGGGTTCTAACCTGTTGCGG (site ATCCAGGCTCC)      fulfilled
28  ACAGGTGCTTGGGTTCTAACCTGTTGCCT (site ACATGTGCTAG)  not fulfilled
29  GCCATGACTTGGGTTCTAACCTGTTGCCT (site GCCATGACTAG)  not fulfilled
30  CCTTTGTCTTGGGTTCTAACCTGTTGCTT (site CCTTTGTCTAA)      fulfilled
31  GAGCGAGCTTGGGTTCTAACCTGTTGCTG (site GAGCGAGCTCG)      fulfilled
32  ATAAGGGCTTGGGTTCTAACCTGTTGCCT (site ATAAGGGCTAG)      fulfilled
33  CCGTCTACTTGGGTTCTAACCTGTTGCTG (site CCGTCTACTCA)      fulfilled
34  AATGGGTCTTGGGTTCTAACCTGTTGCCT (site AATGGGGCTAG)  not fulfilled
35  CTCTCGTCTTGGGTTCTAACCTGTTGCTT (site CTCTCGTCTAG)  not fulfilled
36  TAGGCCACTTGGGTTCTAACCTGTTGCGT (site TAGGCCACTAC)      fulfilled
37  TAGGCTCCTTGGGTTCTAACCTGTTGCAT (site TAGGCTCCTTT)  not fulfilled
38  TGTTCATCTTGGGTTCTAACCTGTTGCCT (site TGTTCATCTAG)  not fulfilled
39  GTCTCATCTTGGGTTCTAACCTGTTGCAT (site AGTATCCCTCG)  not fulfilled
40  TCCGGCGCTTGGGTTCTAACCTGTTGCGG (site CTTACTACTTG)  not fulfilled

* * *

Assay: recombinant UMI read abundance after kanamycin selection (control-corrected) (log10(CPM+1)); higher = more efficient recombination; extreme values may be limits of the assay; sequences stand for … in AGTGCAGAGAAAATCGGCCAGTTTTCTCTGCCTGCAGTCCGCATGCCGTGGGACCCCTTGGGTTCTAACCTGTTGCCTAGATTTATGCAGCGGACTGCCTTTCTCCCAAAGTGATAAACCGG…AGGTTGGTTTCACT; site = the 11-nt donor
recombinant UMI read abundance (log10) vs 0.03: at or above is MET, below is NOT MET.

>>> print(df.to_string())
                         biopolymer_sequence  category
 0  GGAGTGGCATGGACCGGTTTTCCCGGTAATCCGTATTTGAT (site GGAGTGGCTAA)   NOT MET
 1  TCCACCGCATGGACCGGTTTTCCCGGTAATCCGTATTTGCG (site TCCACCCCTCG)   NOT MET
 2  CGTTTAGCATGGACCGGTTTTCCCGGTAATCCGTATTTGCT (site CGTTTCGCTAG)   NOT MET
 3  CTAATGACATGGACCGGTTTTCCCGGTAATCCGTATTTGAC (site CTAATGACTGT)       MET
 4  CAAGTCCCATGGACCGGTTTTCCCGGTAATCCGTATTTGGG (site CAAGTCACTCC)   NOT MET
 5  CTGTACACATGGACCGGTTTTCCCGGTAATCCGTATTTGCT (site CTTTACACTAG)       MET
 6  TCCACGGCATGGACCGGTTTTCCCGGTAATCCGTATTTGCG (site TCCACCGCTCG)   NOT MET
 7  GGGAAAACATGGACCGGTTTTCCCGGTAATCCGTATTTGCT (site GGGAAAACTAG)   NOT MET
 8  GAATGGCCATGGACCGGTTTTCCCGGTAATCCGTATTTGCA (site GTATGGCCTTG)   NOT MET
 9  AGGATGACATGGACCGGTTTTCCCGGTAATCCGTATTTGCA (site AGGATGACTTG)       MET
10  TCGACCGCATGGACCGGTTTTCCCGGTAATCCGTATTTGCG (site TCGACCGCTCG)   NOT MET
11  ATCTTGGCATGGACCGGTTTTCCCGGTAATCCGTATTTGGG (site ATCTTGGCTCC)       MET
12  AACCGTCCATGGACCGGTTTTCCCGGTAATCCGTATTTGAT (site AATCGTCCTAT)   NOT MET
13  CTTCTCTCATGGACCGGTTTTCCCGGTAATCCGTATTTGTT (site CTTCTCTCTGA)   NOT MET
14  GAGCCCACATGGACCGGTTTTCCCGGTAATCCGTATTTGAT (site GAGCCCACTAT)       MET
15  ACATCTACATGGACCGGTTTTCCCGGTAATCCGTATTTGTG (site ACACCTACTCA)   NOT MET
16  CCCTCGCCATGGACCGGTTTTCCCGGTAATCCGTATTTGCC (site CCCTCGCCTGG)   NOT MET
17  TGTACCGCATGGACCGGTTTTCCCGGTAATCCGTATTTGGG (site TGTACCGCTCC)   NOT MET

* * *

Test: recombinant UMI read abundance after kanamycin selection (control-corrected) (log10(CPM+1)); higher = more efficient recombination; extreme values may be limits of the assay; sequences stand for … in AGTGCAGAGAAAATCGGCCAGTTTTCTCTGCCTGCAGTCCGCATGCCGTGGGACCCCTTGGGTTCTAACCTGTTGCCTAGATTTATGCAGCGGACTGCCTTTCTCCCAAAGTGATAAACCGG…AGGTTGGTTTCACT; site = the 11-nt donor
assay metric: recombinant UMI read abundance (log10)

>>> print(df.to_string())
                        biopolymer_sequence  endpoint_result
0  CAAGGACCATGGACCGGTTTTCCCGGTAATCCGTATTTGGG (site CCAGGACCTCC)           0.0136
1  AGGTTCTCATGGACCGGTTTTCCCGGTAATCCGTATTTGTG (site AGGTTCACTCA)            0.205
2  GTAGGCTCATGGACCGGTTTTCCCGGTAATCCGTATTTGCA (site GTAGGCTCTTG)             2.94
3  GGTTCCCCATGGACCGGTTTTCCCGGTAATCCGTATTTGTA (site CGTTCCCCTTA)          0.00861
4  GCGTTAGCATGGACCGGTTTTCCCGGTAATCCGTATTTGTG (site CCGTTAGCTCA)            0.885
5  ATGGCAACATGGACCGGTTTTCCCGGTAATCCGTATTTGTG (site ATGGCAACTCA)             0.02
6  AGGTCAGCATGGACCGGTTTTCCCGGTAATCCGTATTTGGG (site AGTTCAGCTCC)           0.0281
7  ATAGCTACATGGACCGGTTTTCCCGGTAATCCGTATTTGTA (site ATAGCTACTTA)              2.3
8  GAAGATTCATGGACCGGTTTTCCCGGTAATCCGTATTTGCT (site GAAGATTCTAA)            0.178
